Biological target: EGFR T790M/L858R (NCI-H1975 cells) (Homo sapiens, UniProt P00533, L858R/T790M)
Construct: NCI-H1975 (harboring EGFR heterozygous T790M/L858R mutations); host or cells: NCI-H1975
Sequence (P00533 25-1210 T790M/L858R): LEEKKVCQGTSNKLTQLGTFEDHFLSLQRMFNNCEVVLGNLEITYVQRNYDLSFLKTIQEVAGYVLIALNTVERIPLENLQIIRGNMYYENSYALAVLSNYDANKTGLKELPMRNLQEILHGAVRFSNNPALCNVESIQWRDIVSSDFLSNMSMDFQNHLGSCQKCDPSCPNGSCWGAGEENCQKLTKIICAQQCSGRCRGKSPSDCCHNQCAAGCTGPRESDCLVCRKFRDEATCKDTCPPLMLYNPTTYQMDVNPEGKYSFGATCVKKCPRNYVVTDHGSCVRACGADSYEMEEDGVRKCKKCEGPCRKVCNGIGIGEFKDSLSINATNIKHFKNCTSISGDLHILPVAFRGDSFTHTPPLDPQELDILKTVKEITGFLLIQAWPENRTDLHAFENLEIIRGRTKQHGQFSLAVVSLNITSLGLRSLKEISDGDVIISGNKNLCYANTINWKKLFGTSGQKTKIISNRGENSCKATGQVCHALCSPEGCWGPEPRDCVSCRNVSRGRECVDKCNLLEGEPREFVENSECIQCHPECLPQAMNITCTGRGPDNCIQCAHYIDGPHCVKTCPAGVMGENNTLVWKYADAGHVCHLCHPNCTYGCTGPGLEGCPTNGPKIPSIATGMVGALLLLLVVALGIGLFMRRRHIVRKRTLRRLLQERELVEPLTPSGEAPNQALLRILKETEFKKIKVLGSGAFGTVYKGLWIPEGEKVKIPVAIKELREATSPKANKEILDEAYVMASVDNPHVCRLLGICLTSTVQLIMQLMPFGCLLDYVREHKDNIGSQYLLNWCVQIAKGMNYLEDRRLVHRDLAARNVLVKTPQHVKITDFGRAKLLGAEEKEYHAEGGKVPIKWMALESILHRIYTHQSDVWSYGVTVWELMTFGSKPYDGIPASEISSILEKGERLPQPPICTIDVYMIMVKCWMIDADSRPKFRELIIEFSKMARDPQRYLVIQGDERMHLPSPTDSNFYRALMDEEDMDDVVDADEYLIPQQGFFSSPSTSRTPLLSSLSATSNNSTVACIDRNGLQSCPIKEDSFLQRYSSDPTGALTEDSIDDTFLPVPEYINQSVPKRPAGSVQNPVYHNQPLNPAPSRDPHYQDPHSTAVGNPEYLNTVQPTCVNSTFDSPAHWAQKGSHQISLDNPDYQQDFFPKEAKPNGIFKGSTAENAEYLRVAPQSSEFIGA
Assay: EGFR (L858R) degradation analysis, Total EGFR (L858R) HTRF, NCI-H1975 cells
Type: cell-based
Details: 6 hours
Measured DC50 determines class: band 1: < 0.03 µM; band 2: ≥ 0.03 µM and < 0.05 µM; band 3: ≥ 0.05 µM

compound	targetOrSystem	classAssignment
O=C1CCC(Nc2ccc(C3CCN(CC(=O)N4CCC(Oc5ccc(-c6cc(F)c7c(c6)C(=O)N(C(C(=O)Nc6nccs6)c6ncn8c6CCC8)C7)cc5)CC4)CC3)nc2)C(=O)N1 (stereo not shown) [Compound 36]	EGFR T790M/L858R (NCI-H1975 cells) (Homo sapiens, UniProt P00533, L858R/T790M)	band 2

Could you tell me which band O=C1CC[C@H](Nc2ccc(C3CCN(C(=O)CN4CCN(Cc5ccc(-c6cc(F)c7c(c6)C(=O)N(C(C(=O)Nc6nccs6)c6ncn8c6CCC8)C7)cc5)CC4)CC3)c(F)c2)C(=O)N1 (stereo partly shown) [Compound 59] belongs to? band 1

Could you tell me which band O=C1CC[C@@H](Nc2ccc(C3CCN(CC(=O)N4CCC(Oc5ccc(-c6cc(F)c7c(c6)C(=O)N(C(C(=O)Nc6nccs6)c6ncn8c6CCC8)C7)cc5)CC4)CC3)cc2)C(=O)N1 (stereo partly shown) [Compound 33] belongs to? band 2

Could you tell me which band Cn1nc(N2CCC(=O)NC2=O)c2ccc(C3CCN(CC(=O)N4CC5(C4)CN(c4ccc(-c6cc(F)c7c(c6)C(=O)N(C(C(=O)Nc6nccs6)c6ncn8c6CCC8)C7)cc4)C5)CC3(F)F)cc21 (stereo not shown) [Compound 50] belongs to? band 1

Could you tell me which band O=C1CCC(Nc2cccc(C3CCN(CC(=O)N4CCN(c5ccc(-c6cc(F)c7c(c6)C(=O)N(C(C(=O)Nc6nccs6)c6ncn8c6CCC8)C7)cc5)CC4)CC3)c2)C(=O)N1 (stereo not shown) [Compound 16] belongs to? band 3

Could you tell me which band O=C1CCC(Nc2ccc(C3CCN(CC(=O)N4CCN(c5ccc(-c6cc(F)c7c(c6)C(=O)N(C(C(=O)Nc6nccs6)c6ncn8c6CCC8)C7)cc5)CC4)CC3)cc2F)C(=O)N1 (stereo not shown) [Compound 13] belongs to? band 3

Could you tell me which band Cn1nc(N2CCC(=O)NC2=O)c2ccc(C3CCN(CC(=O)N4CCN(c5ccc(-c6cc(F)c7c(c6)C(=O)N(C(C(=O)Nc6nccs6)c6ncn8c6CCC8)C7)cc5)CC4)CC3)cc21 (stereo not shown) [Compound 17] belongs to? band 1

Could you tell me which band O=C1CC[C@H](Nc2ccc(C3CCN(CC(=O)N4CC5(C4)CN(c4ccc(-c6cc(F)c7c(c6)C(=O)N(C(C(=O)Nc6ccccn6)c6ncn8c6CCC8)C7)cc4)C5)CC3)c(F)c2)C(=O)N1 (stereo partly shown) [Compound 53] belongs to? band 3

Could you tell me which band Cn1nc(N2CCC(=O)NC2=O)c2ccc(C3CCN(CC(=O)N4CC5(C4)CN(c4ccc(-c6cc(F)c7c(c6)C(=O)N(C(C(=O)Nc6ccccn6)c6ncn8c6CCC8)C7)cc4)C5)CC3(F)F)cc21 (stereo not shown) [Compound 55] belongs to? band 1
